Tested on: KM12
Test: NCI tumour cell line growth inhibition, 48 h
Calls of active or inactive are those of the source. Cut-off read from the data, not from the text of the source: active = GI50 up to about 1.1 µM and inactive = higher.
Outcomes: 1.0 for active, 0.0 for inactive

COMPOUND | SUBJECT OF TEST | QUALITATIVE LABEL
N#CC1=C(c2ccccc2)C(O)(c2ccccc2)NC1=O (stereo not drawn) | KM12 | 0.0
CC(=O)O[C@H]1CC(C)(C)C(=C=C/C(C)=C/C=C/C=C/C=C(C)/C=C2C=C(/C=C/[C@@]34O[C@]3(C)C[C@@H](O)CC4(C)C)C(=O)O/2)[C@](C)(O)C1 | KM12 | 0.0
N#CC1(c2nc3ccccc3o2)C(=O)C(=O)N(c2ccc(Cl)c(Cl)c2)C(=O)C1=O | KM12 | 0.0
CN(C)/C=N/S(=O)(=O)c1nn2c(C=O)c(-c3ccc(-c4ccc([N+](=O)[O-])cc4)o3)nc2s1 | KM12 | 0.0
COc1cc(C2=NN(C)C(c3ccc([N+](=O)[O-])o3)C2)cc(OC)c1OC (stereo not drawn) | KM12 | 0.0
CN(C)CCn1c(=O)c2ccc(NCCCN(C)CCCNc3ccc4c(=O)n(CCN(C)C)c(=O)n5c6ccc(O)cc6c(=O)c3c45)c3c(=O)c4cc(O)ccc4n(c1=O)c23 | KM12 | 1.0
CN(C(=O)[C@H](NC(=O)OCc1ccccc1)c1ccccc1)C1CCCCC1N1CCCC1 (stereo partly drawn) | KM12 | 0.0
CC1=NN(c2cccc(Cl)c2)C2(SCC(=O)N2c2nc3ccccc3s2)/C1=C\c1ccc(Cl)cc1 (stereo not drawn) | KM12 | 0.0
O=C1Nc2ccccc2Nc2nc3cccccc-3c21 | KM12 | 0.0
C[C@]12CCC3[C@@H](C[C@H]4OC(=O)[C@@]35CCC(=O)C=C45)C1CCC2=O (stereo partly drawn) | KM12 | 0.0
COC(=O)c1c(C)cccc1C1CN=NC12Cc1cc(C)c(C)cc1C2=O (stereo not drawn) | KM12 | 0.0
C/C(CC(O)(/C=N/O)c1ccccc1)=N/O (stereo not drawn) | KM12 | 0.0
CC1(C)COC(c2cccc(C(O)c3ccc(Cl)cc3)c2)=N1 (stereo not drawn) | KM12 | 0.0
